system: NCI-H358; assay: MTS cell viability (cytotoxicity) assay, 2D cell culture; type: cell-based; details: Homo sapiens; NCI-H358, 2D cell culture, 72 h, MTS; ±SD, N = 2; read-out: IC50 antitumor activity NCI-H358 2D
EXPERIMENTAL READOUT: pIC50
Value format note: pIC50 is -log10 of concentration (mol/L); just state the number.

What value of pIC50 has been reported for the following molecule? Cl.FC(F)(F)c1ccc(-c2nc3ccc(C4=NCCCN4)cc3s2)cc1
4.64

Next:
Fill in the blank: the reported pIC50 of c1ccc(-c2nc3cc(C4=NCCCN4)ccc3[nH]2)cc1 is ____.
4.89

Requested field: pIC50. Item: Cl.c1ccc2sc(-c3nc4ccc(C5=NCCCN5)cc4s3)cc2c1
4.80

Quick check: pIC50 of Cl.c1ccc2nc(-c3nc4ccc(C5=NCCCN5)cc4s3)ccc2c1 ?
4.70

----------
experiment: Plasma protein binding, equilibrium dialysis; type: in vitro ADME; settings: mouse plasma, 5 µM, equilibrium dialysis 4 h, 37 °C; read-out: PPB % bound, Mouse (converted)
Criterion: fraction unbound at 4 h, 5 µM strictly less than 0.04. Met: 1.0. Not met: 0.0.

Below 0.04 on fraction unbound at 4 h, 5 µM? Entry Cl.c1ccc2cc(-c3nc4ccc(C5=NCCCN5)cc4s3)ccc2c1
1.0

# strict comparison: is reported fraction unbound at 4 h, 5 µM < 0.04? input = c1ccc2sc(-c3nc4cc(C5=NCCCN5)ccc4[nH]3)cc2c1
0.0

For this molecule, is fraction unbound at 4 h, 5 µM lower than 0.04? Cl.c1ccc2sc(-c3nc4ccc(C5=NCCCN5)cc4s3)cc2c1
1.0

I wonder whether Cl.FC(F)(F)c1ccc(-c2nc3ccc(C4=NCCCN4)cc3s2)cc1 has fraction unbound at 4 h, 5 µM below 0.04. Can you tell?
1.0

Confirm or reject: fraction unbound at 4 h, 5 µM of c1ccc2c(-c3nc4ccc(C5=NCCCN5)cc4[nH]3)c[nH]c2c1 lies strictly below 0.04
0.0

Given the entry N#Cc1ccc(-c2nc3cc(C4=NCCCN4)ccc3[nH]2)cc1 , would its reported fraction unbound at 4 h, 5 µM be below 0.04?
0.0

---
Dear colleague, could you confirm whether fraction unbound at 4 h, 5 µM of c1ccc2c(c1)cc(-c1nc3cc(C4=NCCCN4)ccc3[nH]1)c1ccccc12 falls below 0.04? Thanks.
1.0

Here's an entry: c1ccc(-c2nc3cc(C4=NCCCN4)ccc3[nH]2)cc1 . Is its fraction unbound at 4 h, 5 µM below 0.04?
0.0

Answer whether the molecule FC(F)(F)c1ccc(-c2nc3cc(C4=NCCCN4)ccc3[nH]2)cc1 has fraction unbound at 4 h, 5 µM strictly less than 0.04
0.0

Hello, I'm reviewing records and need to know if fraction unbound at 4 h, 5 µM of c1ccc2cc(-c3nc4cc(C5=NCCCN5)ccc4[nH]3)ccc2c1 is below 0.04. Could you check?
0.0

Consider Cl.N#Cc1ccc(-c2nc3ccc(C4=NCCCN4)cc3s2)cc1 . Does its fraction unbound at 4 h, 5 µM lie strictly below 0.04?
0.0

----------
test: Stability in plasma; type: in vitro ADME; conditions: mouse plasma, 37 °C
EXPERIMENTAL READOUT: remaining at 4 h, 5 µM (%)
Number in %, nothing else.

Solved entries (count: 2):
Looking for the measured remaining at 4 h, 5 µM of FC(F)(F)c1ccc(-c2nc3cc(C4=NCCCN4)ccc3[nH]2)cc1 , can you help?
94

Quick one: remaining at 4 h, 5 µM for c1ccc2sc(-c3nc4cc(C5=NCCCN5)ccc4[nH]3)cc2c1 ?
92

Field: next compound
What value of remaining at 4 h, 5 µM has been reported for the following compound? Cl.c1ccc2nc(-c3nc4ccc(C5=NCCCN5)cc4s3)ccc2c1
85

----------
Listing of entries alongside the reported Papp B→A at 60 min, 10 µM.
system: P-glycoprotein (human MDR1); assay: MDCKII-MDR1 permeability and P-glycoprotein substrate assay; type: in vitro ADME, canine cells over-expressing human MDR1; conditions: dog, MDCK-MDR1, pH 7.4; 10 µM, 60 min, without P-gp inhibitor; read-out: MDCKII-MDR1 Papp(B2A)
Form entry: value (×10⁻⁶ cm/s) — number only.

P-glycoprotein (human MDR1) / Papp B→A at 60 min, 10 µM / Cl.c1ccc2sc(-c3nc4ccc(C5=NCCCN5)cc4s3)nc2c1 : value?
16.5

Item: c1ccc2c(-c3nc4ccc(C5=NCCCN5)cc4[nH]3)c[nH]c2c1 Test system: P-glycoprotein (human MDR1) Read-out: Papp B→A at 60 min, 10 µM Value: ?
2.17

Others:
Kindly state the measured Papp B→A at 60 min, 10 µM obtained for c1ccc2cc(-c3nc4cc(C5=NCCCN5)ccc4[nH]3)ccc2c1 with P-glycoprotein (human MDR1).
2.49

Please provide the recorded Papp B→A at 60 min, 10 µM for N#Cc1ccc(-c2nc3cc(C4=NCCCN4)ccc3[nH]2)cc1 , tested on P-glycoprotein (human MDR1).
1.02

Look up Papp B→A at 60 min, 10 µM with P-glycoprotein (human MDR1) for this molecule: Cl.c1ccc2sc(-c3nc4ccc(C5=NCCCN5)cc4s3)cc2c1
7.6

What measured Papp B→A at 60 min, 10 µM is associated with c1ccc2sc(-c3nc4cc(C5=NCCCN5)ccc4[nH]3)cc2c1 on P-glycoprotein (human MDR1)?
0.86

Test system P-glycoprotein (human MDR1); read-out Papp B→A at 60 min, 10 µM; what value for c1ccc(-c2nc3cc(C4=NCCCN4)ccc3[nH]2)cc1 ?
1.4

Reported Papp B→A at 60 min, 10 µM for P-glycoprotein (human MDR1), given FC(F)(F)c1ccc(-c2nc3cc(C4=NCCCN4)ccc3[nH]2)cc1 ?
1.93

----------
test: Stability in plasma; assay type: in vitro ADME; conditions: human plasma, 37 °C
EXPERIMENTAL READOUT: remaining at 4 h, 5 µM

Below, each entry is followed by its recorded remaining at 4 h, 5 µM result.
# remaining at 4 h, 5 µM lookup, item Cl.c1ccc2nc(-c3nc4ccc(C5=NCCCN5)cc4s3)ccc2c1 [Compound 5d]
81%

Need remaining at 4 h, 5 µM of Cl.N#Cc1ccc(-c2nc3ccc(C4=NCCCN4)cc3s2)cc1 [Compound 5b] , thanks.
86%

Field request: remaining at 4 h, 5 µM | item: c1ccc2c(-c3nc4ccc(C5=NCCCN5)cc4[nH]3)c[nH]c2c1 [Compound 6e]
98%

For the molecule FC(F)(F)c1ccc(-c2nc3cc(C4=NCCCN4)ccc3[nH]2)cc1 [Compound 6c] , what remaining at 4 h, 5 µM is on record?
96%

Endpoint output: remaining at 4 h, 5 µM of c1ccc(-c2nc3cc(C4=NCCCN4)ccc3[nH]2)cc1 [Compound 6a] . Value?
73%

***
Entry under review: c1ccc2sc(-c3nc4cc(C5=NCCCN5)ccc4[nH]3)cc2c1 [Compound 6d] . Reported remaining at 4 h, 5 µM?
95%

I'd like to know its remaining at 4 h, 5 µM. The molecule in question is N#Cc1ccc(-c2nc3cc(C4=NCCCN4)ccc3[nH]2)cc1 [Compound 6b]
98%

Reported remaining at 4 h, 5 µM for c1ccc2cc(-c3nc4cc(C5=NCCCN5)ccc4[nH]3)ccc2c1 [Compound 6f] : what is it?
106%

----------
system: NCI-H358; test: MTS cell viability (cytotoxicity) assay, 2D cell culture; assay type: cell-based; details: Homo sapiens; NCI-H358, 2D cell culture, 72 h, MTS; ±SD, N = 2; read-out: IC50 antitumor activity NCI-H358 2D
Listed here: items and their measured IC50.

IC50 of Cl.c1ccc(-c2nc3ccc(C4=NCCCN4)cc3s2)cc1 [Compound 5a] on NCI-H358?
> 50 µM

New cases:
Find the measured IC50: item Cl.c1ccc2cc(-c3nc4ccc(C5=NCCCN5)cc4s3)ccc2c1 [Compound 5h] , target or system NCI-H358.
10 µM

Please tell me: IC50 of COc1cc2c(Nc3ccc(Br)cc3F)ncnc2cc1OCC1CCN(C)CC1 [Vandetanib, reference compound] , system NCI-H358?
3 µM

Short answer please: IC50, NCI-H358, entry Cl.c1ccc2sc(-c3nc4ccc(C5=NCCCN5)cc4s3)nc2c1 [Compound 5g]
26 µM

# get_value(readout= IC50, system= NCI-H358) for Cl.c1ccc2c(-c3nc4ccc(C5=NCCCN5)cc4s3)c[nH]c2c1 [Compound 5f]
> 50 µM

I'm curious: which IC50 was measured for c1ccc2sc(-c3nc4cc(C5=NCCCN5)ccc4[nH]3)cc2c1 [Compound 6d] tested on NCI-H358?
> 50 µM

Request body: readout IC50, system NCI-H358, query c1ccc2c(-c3nc4ccc(C5=NCCCN5)cc4[nH]3)c[nH]c2c1 [Compound 6e] . Return the value.
> 50 µM

Give the reported IC50 for COc1cccc2c1C(=O)c1c(O)c3c(c(O)c1C2=O)C[C@@](O)(C(=O)CO)C[C@@H]3O[C@H]1C[C@H](N)[C@H](O)[C@H](C)O1 [Doxorubicin, reference compound] (system: NCI-H358).
0.11 µM

The measurements presented in this section are drawn from paper PMC7801115.
